# Test system: U2OS
# test description: Multiplex assay against U2OS
# Type: toxicity, cell-based
# experimental conditions: human, 24 h, 10 µM, compound concentration 10 uM, replicate 2
Is Population Mitotic Cells (%) at least 20%? Then t. If not, f.

molecule	assayed system	group label
CCCc1cc(C)[nH]c(=O)c1CNC(=O)c1cc(-c2ccc(N3CCN(C(C)C)CC3)nc2)cc2c1cnn2C(C)C	U2OS	f
CCOC(=O)CCNc1cc(N2CCc3ccccc3CC2)nc(-c2ccccn2)n1	U2OS	f
CCCCN(CC)c1nc(C)nc2c1c(C)cn2-c1c(C)cc(C)cc1C.Cl	U2OS	t
Cl.Cn1c2c(c3ccc(Cl)c(Cl)c31)C(C#N)C1(CCNCC1)NC2=O (stereo unspecified)	U2OS	t
C=CC(=O)Nc1cc(-n2c(=O)ccc3cnc4ccc(-c5ccc(NS(C)(=O)=O)cc5)cc4c32)ccc1C	U2OS	f
CC[C@@H]1C(=O)N(C)c2cnc(Nc3ccc(C(=O)NC4CCN(C)CC4)cc3OC)nc2N1C1CCCC1	U2OS	f
Oc1cccc(-c2nc(N3CCOCC3)c3oc4ncccc4c3n2)c1	U2OS	t
CC[C@H](Nc1ncnc2[nH]cnc12)c1nc2cccc(F)c2c(=O)n1-c1ccccc1	U2OS	t
Cl.NC[C@@H]1O[C@H](C23CC4CC(CC(C4)C2)C3)Cc2c1ccc(O)c2O	U2OS	f
CC(Cc1ccc(O)c(O)c1)C(C)Cc1ccc(O)c(O)c1 (stereo unspecified) [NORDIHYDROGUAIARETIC ACID]	U2OS	t
